TESTED_TARGET: Cellular tumor antigen p53 (Homo sapiens)
PROTOCOL_DETAILS: nuclear p53 accumulation, HPV+ cells – imaging, p53-positive nuclei imaging, 24 h, 48 h (AID 1508601)
MEASUREMENT_CONDITIONS: 24/48 h, measured here: p53 positive nuclei at 24 h, Library stock concentration: 10 mM, stronger effect = higher value
About 85 (1%) of roughly 5,700 compounds were called active. Many of the other results were omitted from the sample, so actives are more common in it than they were.

{"COMPOUND": "CC(C)(C)Nc1nc2cc(Cl)c(Cl)cc2nc1S(C)(=O)=O", "p53-positive nuclei, normalised (%)": 1.86}
{"COMPOUND": "CCOC(=O)NC1CCC2C(C1)CC1C(=O)OC(C)C1C2C=Cc1ccc(-c2cccc(F)c2)cn1 (configuration not stated)", "p53-positive nuclei, normalised (%)": 0.188}
{"COMPOUND": "NC(=O)c1ccc(-c2nc(-c3ccc4c(c3)OCCO4)c(-c3ccccn3)[nH]2)cc1", "p53-positive nuclei, normalised (%)": 0.138}
{"COMPOUND": "Nc1ccn(C2OC(CO)C(O)C2F)c(=O)n1 (configuration not stated)", "p53-positive nuclei, normalised (%)": -0.0521}
{"COMPOUND": "CC(NC(=O)c1cc(Cl)ccc1Oc1ccc(F)cc1)c1ccc(C(=O)O)cc1 (configuration not stated)", "p53-positive nuclei, normalised (%)": -0.136}
{"COMPOUND": "O=C1NCCSc2c1sc1ccc(O)cc21", "p53-positive nuclei, normalised (%)": 4.05}
{"COMPOUND": "O=C(O)C=Cc1ccc(Cn2ccnc2)cc1", "p53-positive nuclei, normalised (%)": -0.12}
{"COMPOUND": "O=C(O)c1ccccc1SC1=NS(=O)(=O)c2ccccc21", "p53-positive nuclei, normalised (%)": -0.0218}
{"COMPOUND": "CC(C)CC(=O)Nc1n[nH]c2c1CN(C(=O)C1CCN(C)CC1)C2(C)C", "p53-positive nuclei, normalised (%)": 0.472}
{"COMPOUND": "CCc1cnn2c(NCc3ccc[n+]([O-])c3)cc(N3CCCCC3CCO)nc12 (configuration not stated)", "p53-positive nuclei, normalised (%)": 2.01}
{"COMPOUND": "CC1CCNC(=O)c2cc3ccc(C(=O)Nc4nc5ccccc5n4CCCN(C)C)cc3n21 (configuration not stated)", "p53-positive nuclei, normalised (%)": -0.111}
{"COMPOUND": "CC(C)N(CCCNC(=O)Nc1ccc(C(C)(C)C)cc1)CC1OC(n2cc(Br)c3c(N)ncnc32)C(O)C1O (configuration not stated)", "p53-positive nuclei, normalised (%)": -0.163}
{"COMPOUND": "O=C1CC(c2ccc([N+](=O)[O-])cc2)=NN1c1ccccc1", "p53-positive nuclei, normalised (%)": 0.0862}
{"COMPOUND": "N#CSc1cc(SC#N)c(N)nc1N", "p53-positive nuclei, normalised (%)": 76.7}
{"COMPOUND": "CCCCCCCCCCCCCC=CC(O)C(CO)N(C)C (configuration not stated)", "p53-positive nuclei, normalised (%)": 3.53}
{"COMPOUND": "CC(CCC(=O)O)C1CC[C@H]2[C@@H]3C(O)C[C@@H]4CC(O)CC[C@]4(C)[C@@H]3CC[C@]12C (some centres not stated)", "p53-positive nuclei, normalised (%)": -0.11}
{"COMPOUND": "COc1ccc2nc3ccc(OC)cc3c(SCCCN)c2c1", "p53-positive nuclei, normalised (%)": 0.819}
{"COMPOUND": "NC(=O)c1ncn(C2OC(CO)C(O)C2O)c1O (configuration not stated)", "p53-positive nuclei, normalised (%)": -0.0747}
{"COMPOUND": "OC(c1cc(C(F)(F)F)nc2c(C(F)(F)F)cccc12)[C@H]1CCCCN1 (some centres not stated)", "p53-positive nuclei, normalised (%)": 1.37}
{"COMPOUND": "OC1CCC(Nc2ncc3nc(Nc4c(F)cc(F)cc4F)n(C4CCOC4)c3n2)CC1 (configuration not stated)", "p53-positive nuclei, normalised (%)": -0.0545}
{"COMPOUND": "COC(=O)C=CC(=O)N(O)CCCCNCc1ccc(COC(=O)Nc2cccc3ccccc23)cc1", "p53-positive nuclei, normalised (%)": -0.0473}
{"COMPOUND": "C#C[C@]1(O)CC[C@@H]2[C@@H]3CCc4cc(O)ccc4[C@@H]3CC[C@@]21C", "p53-positive nuclei, normalised (%)": 6.02}
